Source: patent US12036230B2

- Test System: Human recombinant PTEN (Homo sapiens)
- Construct: host or cells: Escherichia coli
- Sequence (P60484 whole entry): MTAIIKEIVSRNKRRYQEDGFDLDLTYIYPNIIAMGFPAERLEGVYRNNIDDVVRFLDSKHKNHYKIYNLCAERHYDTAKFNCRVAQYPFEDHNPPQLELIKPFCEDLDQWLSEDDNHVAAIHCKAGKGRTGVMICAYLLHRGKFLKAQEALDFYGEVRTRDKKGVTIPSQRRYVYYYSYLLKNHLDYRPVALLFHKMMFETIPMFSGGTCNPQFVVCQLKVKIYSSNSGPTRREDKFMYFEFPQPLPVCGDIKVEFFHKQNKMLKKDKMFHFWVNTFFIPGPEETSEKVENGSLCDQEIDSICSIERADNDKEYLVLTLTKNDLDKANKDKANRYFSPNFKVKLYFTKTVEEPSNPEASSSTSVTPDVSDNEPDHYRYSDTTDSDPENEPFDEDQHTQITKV
- Protocol Details: PTEN inhibitor screen: conversion of DiFMUP to DiFMU by recombinant PTEN, spectrofluorometric
- Format: biochemical
- Test Parameters: candidate PTEN inhibitor at 10 μM; 100 μM DiFMUP, 37° C., 1 hour, pH 8.5; read-out: % Inhibition
Numbered stars: 1 amine (or outer) side, 2 acyl side, 3 side chain; on linkers, the order of the positions; unused ones are H or OH. Bridge positions count the residues as written; N and C are the ends. Peptide text beside a SMILES is read from it. X1 = O=C(CCC[*:2])[*:1]
Attribute Measured: inhibition at 10 µM (%)
Quick reminder: number only, in %, skip the unit.

Request: State inhibition at 10 µM on Human recombinant PTEN (Homo sapiens). Entry: CC[C@H](C)[C@@H]1NC(=O)[C@H](Cc2ccc(OC)cc2)NC(=O)CCCSC[C@@H](C(=O)N2CCC[C@H]2C(=O)N[C@@H](CC(C)C)C(=O)NCC(N)=O)NC(=O)[C@H](CC(N)=O)NC(=O)[C@H](CCC(N)=O)NC1=O [carbetocin] (Y(Me)IQNCPLG-NH2; linker N-5 via X1)
Response: 1

Request: State inhibition at 10 µM on Human recombinant PTEN (Homo sapiens). Entry: Cc1cc2nc3c(=O)[nH]c(=O)nc-3n(C[C@H](O)[C@H](O)[C@H](O)COP(=O)(O)OP(=O)(O)OC[C@H]3O[C@@H](n4cnc5c(N)ncnc54)[C@H](O)[C@@H]3O)c2cc1C [flavin adenine dinucleotide]
Response: 13
